Entry source: patent US11046716B2

Please go through the items and note down their IC50.
Molecular target: UniProt:P0A3M1
Sequence (P0A3M1 22-286): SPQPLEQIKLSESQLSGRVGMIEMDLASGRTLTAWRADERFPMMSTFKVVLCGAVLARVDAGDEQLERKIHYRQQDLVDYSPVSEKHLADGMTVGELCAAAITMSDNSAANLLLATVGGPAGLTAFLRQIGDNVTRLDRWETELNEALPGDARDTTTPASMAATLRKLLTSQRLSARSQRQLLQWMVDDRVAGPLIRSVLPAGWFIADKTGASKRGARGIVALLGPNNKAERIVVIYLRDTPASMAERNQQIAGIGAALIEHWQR
Assay: β-lactamase enzyme inhibition assay, SHV-5 (cefotaxime substrate)

[Q] Reported IC50, compound CNCc1cn(CC(=O)N[C@H]2Cc3cccc(C(=O)O)c3OB2O)nn1 : ____
[A] < 100 nM

[Q] Next record, please: N=C(N)NCCn1nnc(CC(=O)N[C@H]2Cc3cccc(C(=O)O)c3OB2O)n1
[A] < 100 nM

[Q] Next record, please: O=C(Cn1cc(CF)nn1)N[C@H]1Cc2cccc(C(=O)O)c2OB1O
[A] < 100 nM

[Q] Next record, please: N=C(N)NCCn1nnnc1CC(=O)N[C@H]1Cc2cccc(C(=O)O)c2OB1O
[A] < 100 nM

[Q] Next record, please: CNCc1nnn(CC(=O)N[C@H]2Cc3cccc(C(=O)O)c3OB2O)c1CO
[A] 100 to 1000 nM

[Q] Next record, please: NCc1nnn(CC(=O)N[C@H]2Cc3cccc(C(=O)O)c3OB2O)c1I
[A] 100 to 1000 nM

[Q] Next record, please: NCCn1cnc(C(=O)N[C@H]2Cc3cccc(C(=O)O)c3OB2O)c1
[A] < 100 nM

[Q] Next record, please: NCc1ncn(CC(=O)N[C@H]2Cc3cccc(C(=O)O)c3OB2O)n1
[A] 100 to 1000 nM

[Q] Next record, please: COc1c(C[C@H](NC(=O)Cn2cc(CN)nn2)B(O)O)cccc1C(=O)O
[A] < 100 nM
